Sourced from patent US10227342B2

Hi there, I'd appreciate the recorded IC50 for every entry that follows.
measured on: human EGFR exon 20 insertion ASV (V769_D770insASV) (Homo sapiens (Human), UniProt P00533, INS769ASV)
Sequence (P00533 other isoform, or with tags, fused parts or gaps ins ASV behind 769): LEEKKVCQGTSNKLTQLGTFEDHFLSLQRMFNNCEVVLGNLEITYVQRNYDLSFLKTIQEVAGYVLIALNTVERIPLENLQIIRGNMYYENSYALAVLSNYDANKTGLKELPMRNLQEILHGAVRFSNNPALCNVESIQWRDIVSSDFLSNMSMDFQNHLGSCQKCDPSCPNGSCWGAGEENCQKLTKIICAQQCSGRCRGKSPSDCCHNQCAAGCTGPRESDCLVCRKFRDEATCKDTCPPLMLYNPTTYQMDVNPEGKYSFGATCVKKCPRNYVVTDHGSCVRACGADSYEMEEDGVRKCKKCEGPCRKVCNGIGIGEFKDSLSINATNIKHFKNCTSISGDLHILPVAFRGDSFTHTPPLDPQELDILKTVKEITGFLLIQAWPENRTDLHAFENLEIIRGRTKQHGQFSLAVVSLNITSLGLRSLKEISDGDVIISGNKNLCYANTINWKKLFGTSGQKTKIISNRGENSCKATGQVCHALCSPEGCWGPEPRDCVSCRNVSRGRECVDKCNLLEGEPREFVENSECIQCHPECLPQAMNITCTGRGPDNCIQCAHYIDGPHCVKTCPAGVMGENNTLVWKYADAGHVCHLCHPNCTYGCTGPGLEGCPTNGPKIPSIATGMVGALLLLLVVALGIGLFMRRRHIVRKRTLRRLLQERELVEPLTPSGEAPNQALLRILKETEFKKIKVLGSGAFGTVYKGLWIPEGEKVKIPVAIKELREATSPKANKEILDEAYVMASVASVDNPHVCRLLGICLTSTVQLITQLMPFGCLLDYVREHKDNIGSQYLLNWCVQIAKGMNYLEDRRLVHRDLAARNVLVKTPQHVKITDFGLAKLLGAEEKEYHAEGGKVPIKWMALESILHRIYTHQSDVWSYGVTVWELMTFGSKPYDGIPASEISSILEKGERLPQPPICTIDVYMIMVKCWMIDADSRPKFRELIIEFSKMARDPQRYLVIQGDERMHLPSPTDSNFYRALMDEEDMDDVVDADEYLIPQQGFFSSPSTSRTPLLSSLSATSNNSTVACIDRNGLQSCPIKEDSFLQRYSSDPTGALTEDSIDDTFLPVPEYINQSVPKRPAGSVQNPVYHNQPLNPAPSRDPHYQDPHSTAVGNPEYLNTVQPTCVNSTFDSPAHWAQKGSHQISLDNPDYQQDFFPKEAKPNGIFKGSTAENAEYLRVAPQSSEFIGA
assay explanation: Ba/F3-EGFR-Exon20-ASV cell anti-proliferative assay (CellTiter 96 MTS, 72 h)
Assay type: cell-based
condition parameters: Ba/F3-EGFR-Exon20-ASV cells

Solved cases (2 shown):
molecule	IC50
C=CC(=O)Nc1cc(Nc2ncc(C(=O)OCC)c(-c3cn(C)c4ccccc34)n2)c(OC)cc1N(C)C[C@H]1CCCN1C [Example 65]	< 100 nM
C=CC(=O)Nc1cc(Nc2ncnc(-c3c(C4CCOCC4)n(C)c4ccccc34)n2)c(OC)cc1N(C)CCN(C)C [Example 4]	100 to 500 nM

Could you tell me IC50 for each of these molecules? They are listed below.
1. C=CC(=O)Nc1cc(Nc2ncc(NC(=O)NC)c(-c3cn(C)c4ccccc34)n2)c(OC)cc1N(C)CCN(C)C [Example 99]
2. C=CC(=O)Nc1cc(Nc2ncc(C(=O)OC(C)C)c(-c3c[nH]c4ccccc34)n2)c(OC)cc1N(C)C[C@H]1CCCN1C [Example 64]
3. C=CC(=O)Nc1cc(Nc2nccc(-c3c(C(=O)OC)n(C)c4ccccc34)n2)c(OC)cc1N(C)CCN(C)C [Example 86]
4. C=CC(=O)Nc1cc(Nc2ncc(C(=O)OC(C)C)c(-c3cnc4ccccn34)n2)c(OC)cc1N(C)CCN(C)C [Example 94]
5. C=CC(=O)Nc1ccc(OC)c(Nc2ncc(C#N)c(-c3cn(C)c4cc(OCCC5CCCN5C)ccc34)n2)c1 (stereo not shown) [Example 23]
6. C=CC(=O)Nc1cc(Nc2ncc(NC(=O)C(C)(C)C)c(-c3cn(C)c4ccccc34)n2)c(OC)cc1OC [Example 42]
7. C=CC(=O)Nc1cc(Nc2ncnc(-c3c(-c4ccccc4)n(C)c4ccccc34)n2)c(OC)cc1N(C)CCN(C)C [Example 3]
8. C=CC(=O)Nc1cc(Nc2ncc(NC(=O)C(C)(C)C)c(-c3cn(C)c4ccccc34)n2)c(OC)cc1N(C)CCN(C)C [Example 41]

500 to 1000 nM
< 100 nM
< 100 nM
< 100 nM
100 to 500 nM
> 1000 nM
< 100 nM
500 to 1000 nM

Could you tell me IC50 for each of these molecules? They are listed below.
1. C=CC(=O)Nc1ccc(OC)c(Nc2ncc(C#N)c(-c3cn(C)c4cc(OCCCN(C)C)ccc34)n2)c1 [Example 19]
2. C=CC(=O)Nc1cc(Nc2ncc(C(=O)OC(C)C)c(-c3cn(C)c4ccccc34)n2)c(OC)cc1N(C)CCN(C)C [Example 10]
3. C=CC(=O)Nc1cc(Nc2nccc(-c3c(C(=O)NCCOC)n(C)c4ccccc34)n2)c(OC)cc1N(C)CCN(C)C [Example 93]
4. C=CC(=O)Nc1cc(Nc2ncc(C(=O)OCC3CC3)c(-c3cn(C)c4ccccc34)n2)c(OC)cc1N(C)CCN(C)C [Example 13]
5. C=CC(=O)Nc1cc(Nc2ncc(C(=O)OC(C)C)c(-c3cn(C)c4ccccc34)n2)c(OC)cc1N(C)C[C@@H]1CCCN1 [Example 73]
6. C=CC(=O)Nc1cc(Nc2ncc(C(=O)O[C@@H]3CCOC3)c(-c3cn(C)c4ccccc34)n2)c(OC)cc1N(C)CCN(C)C [Example 37]
7. C=CC(=O)Nc1cc(Nc2ncc(C(=O)OC(C)C)c(-c3nn(C)c4ccccc34)n2)c(OC)cc1N(C)CCN(C)C [Example 59]
8. C=CC(=O)Nc1cc(Nc2ncc(C(=O)OC(C)C)c(-c3cn(C4CC4)c4ccccc34)n2)c(OC)cc1N(C)CCN(C)C [Example 79]

["100 to 500 nM", "< 100 nM", "500 to 1000 nM", "< 100 nM", "< 100 nM", "< 100 nM", "< 100 nM", "< 100 nM"]

Could you tell me IC50 for each of these molecules? They are listed below.
1. C=CC(=O)Nc1cc(Nc2ncc(C(=O)OC(C)C)c(-c3c[nH]c4ccccc34)n2)c(OC)cc1N(C)CCN(C)C [Example 30]
2. C=CC(=O)Nc1cc(Nc2ncc(C(=O)OC(C)C)c(-n3cc(C)c4ccccc43)n2)c(OC)cc1N(C)CCN(C)C [Example 97]
3. C=CC(=O)Nc1ccc(OC)c(Nc2ncc(Cl)c(-c3c[nH]c4cc(OCCN5CCCC5)ccc34)n2)c1 [Example 22]

1. < 100 nM
2. 100 to 500 nM
3. 100 to 500 nM

Using the record for C=CC(=O)Nc1cc(Nc2nccc(-c3c(-c4cncc(Cl)c4)n(C)c4ccccc34)n2)c(OC)cc1N(C)CCN(C)C [Example 6] , report its IC50.
< 100 nM

###

measured on: human EGFR exon 20 insertion ASV (V769_D770insASV) (Homo sapiens (Human), UniProt P00533, INS769ASV)
assay explanation: Ba/F3-EGFR-Exon20-ASV cell anti-proliferative assay (CellTiter 96 MTS, 72 h);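 further: Ba/F3 cells bearing the EGFR exon 20 ASV insertion, a line able to proliferate without IL-3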
condition parameters: Ba/F3-EGFR-Exon20-ASV cells
pIC50: −log10 of the molar value.
measured quantity: pIC50

Could you tell me pIC50 for each of these compounds? They are listed below.
1. C=CC(=O)Nc1cc(Nc2nccc(-c3cn(CC(N)=O)c4ccccc34)n2)c(OC)cc1N(C)CCN(C)C
2. C=CC(=O)Nc1cc(Nc2ncc(C(=O)OCC(C)C)c(-c3cn(C)c4ccccc34)n2)c(OC)cc1N(C)CCN(C)C
3. C=CC(=O)Nc1cc(Nc2nccc(-c3c(-c4ccc(OCc5ccccn5)c(Cl)c4)n(C)c4ccccc34)n2)c(OC)cc1N(C)CCN(C)C
4. C=CC(=O)Nc1cc(Nc2ncc(C(=O)OC(C)C)c(-c3cn(C)c4ccccc34)n2)c(OC)cc1OCCN(C)C
5. C=CC(=O)Nc1ccc(OC)c(Nc2ncc(Cl)c(-c3cn(C)c4cc(OCCN5CCN(C)CC5)ccc34)n2)c1

> 7.00
> 7.00
6.30 to 7.00
> 7.00
< 6.00

Using the record for "C=CC(=O)Nc1cc(Nc2nccc(-c3c(C(N)=O)n(C)c4ccccc34)n2)c(OC)cc1N(C)CCN(C)C" , report its pIC50.
6.30 to 7.00
